Experiment: Solubility in aqueous and biorelevant media (Table A)
Assay type: physicochemical
Conditions: fassif
READOUT: Solubility (µg/mL)

COMPOUND	READOUT	READOUT NUMBER
CC(C)OC(=O)[C@@H](Cc1ncccn1)OC(=O)Nc1c2c(cc3c1CCC3)CCC2 [Form 1]	Solubility	26

###

Assay: Solubility in aqueous and biorelevant media (Table A)
Assay type: physicochemical
Details: pH = 7.4

MOLECULE	Solubility
CC(C)OC(=O)[C@@H](Cc1ncccn1)OC(=O)Nc1c2c(cc3c1CCC3)CCC2 [Form 1]	< 10 µg/mL

###

Experiment: Solubility in aqueous and biorelevant media (Table A)
Assay type: physicochemical
Settings: pH = 8.5

MOLECULE	Solubility
CC(C)OC(=O)[C@@H](Cc1ncccn1)OC(=O)Nc1c2c(cc3c1CCC3)CCC2 [Form 1]	< 10 µg/mL
